Entry source: patent US7056679B2

- ASSAYED_SYSTEM: DGI-2 (Homo sapiens, UniProt Q15004)
- Construct: encompassed the entire DGI-2 open reading frame (ORF); His-tag of vector pIVEX2.3-MCS (inferred from the vector and from the reverse primer lacking a stop codon); made in house; host or cells: cell-free in vitro translation (Rapid Translation System RTS, Roche; E. coli lysate)
- Sequence (Q15004 1-111): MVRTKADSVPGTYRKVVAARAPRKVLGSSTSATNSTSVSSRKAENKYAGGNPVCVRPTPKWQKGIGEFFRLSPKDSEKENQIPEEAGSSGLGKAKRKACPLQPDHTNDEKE
- EXPERIMENTAL_DETAILS: ELISA analysis of phage on DGI-2 polypeptide (specific binding)
- CONDITIONS_USED: binding to DGI-2 polypeptide (specific binding); phage ELISA units read at 405 nm
We use 2 OD as the dividing line for DGI-2 (OD): on or above the line is Fulfilled, below is Not fulfilled.

biosequence="LVIQCSASVVACDLYWNYVGCLAAG (DGI-2-20C-3-D12; listed as Escherichia coli)" assayed_system="DGI-2 (Homo sapiens, UniProt Q15004)" group="Not fulfilled"
biosequence="PKDGAAFKGSDFIQGGQTVMERAPALWWRDGGGQWEAPST (DGI-2-40F-3-B72; listed as Escherichia coli)" assayed_system="DGI-2 (Homo sapiens, UniProt Q15004)" group="Not fulfilled"
biosequence="TIDVARRFGYGWWDLWLDGD (DGI-2-20R-3-C3; listed as Escherichia coli)" assayed_system="DGI-2 (Homo sapiens, UniProt Q15004)" group=Fulfilled
biosequence="VCGQRVARMQLNKTIRKLDS (DGI-2-20F-PP-A6; listed as Escherichia coli)" assayed_system="DGI-2 (Homo sapiens, UniProt Q15004)" group=Fulfilled
biosequence="QGSAHVVRPPGVYDVPWKVGMFFHPQNWPNSWGRAYFRSG (DGI-2-40F-3-D12; listed as Escherichia coli)" assayed_system="DGI-2 (Homo sapiens, UniProt Q15004)" group=Fulfilled
biosequence="LPQSRWLSEAWASWVDGVVD (DGI-2-20F-4-F9; listed as Escherichia coli)" assayed_system="DGI-2 (Homo sapiens, UniProt Q15004)" group=Fulfilled
biosequence="RRTQPAYRSGADDRTSGFYCYVTSALSAGAWMPFLPRRLA (DGI-2-40F-3-A12; listed as Escherichia coli)" assayed_system="DGI-2 (Homo sapiens, UniProt Q15004)" group="Not fulfilled"
biosequence="TLVTEGNIKGSVKAHKDIGVWQLWWDWLSVTDSETVGRVSH (TLVTEGNKGSVKAHKDIGVWQLWWDWLSVTDSETVGRVSH; DGI-2-40F-3-D10; listed as Escherichia coli) [DGL-2-40F-3-D10]" assayed_system="DGI-2 (Homo sapiens, UniProt Q15004)" group="Not fulfilled"
biosequence="YDQVWNSLLAAVLGGQELVN (DGI-2-20F-3-D112; listed as Escherichia coli)" assayed_system="DGI-2 (Homo sapiens, UniProt Q15004)" group="Not fulfilled"
biosequence="QVGGMTQVGATVLSVVTGRGSCDGEDAWYPPGVTVGLGLC (DGI-2-40F-4-F97; listed as Escherichia coli)" assayed_system="DGI-2 (Homo sapiens, UniProt Q15004)" group=Fulfilled
biosequence="RERWGTAWNLWTEGVVDVRP (DGI-2-20F-3-B5; listed as Escherichia coli)" assayed_system="DGI-2 (Homo sapiens, UniProt Q15004)" group=Fulfilled
biosequence="SVSGGGVFGTGGRVRHQVSG (DGI-2-20F-PP-C5; listed as Escherichia coli)" assayed_system="DGI-2 (Homo sapiens, UniProt Q15004)" group=Fulfilled
biosequence="SYRNFAMQSSLQVRRGSVVEDGTCWWEGVRCYSG (DGI-2-40F-4-F6; listed as Escherichia coli)" assayed_system="DGI-2 (Homo sapiens, UniProt Q15004)" group=Fulfilled
biosequence="TVKFQGVVQERSRIAGFRYCGDHAVSWGLAGCPALRDKLQ (DGI-2-40F-3-C424; listed as Escherichia coli)" assayed_system="DGI-2 (Homo sapiens, UniProt Q15004)" group=Fulfilled
